Reported values of LOGP_HCOOH for individual entries
assay: log P by HPLC on reversed-phase column (C 18), EEC Directive 79/831 Annex V.A8; type: physicochemical; conditions: log P (HCOOH), acidic range pH 2.7, 0.1% aqueous formic acid and acetonitrile; reversed-phase column (C 18), 55° C.

O=C(NCc1ccc(Cl)cc1F)c1cc(-c2ccc(C(F)(F)F)cc2)cc(NC(=O)C2CC2)n1 [Example I-066]	4.63
O=C(NCc1ccc(-c2ncon2)cc1)c1cc(-c2ccc(SC(F)(F)F)cc2)cc(NC(=O)C2CC2)n1 [Example I-093]	4.28
N#CCNC(=O)c1cc(-c2ccc(C(F)(F)F)cc2)cc(NC(=O)C2CC2)n1 [Example I-025]	3.05
O=C(NCc1ccc([N+](=O)[O-])cc1)c1cc(-c2ccc(C(F)(F)F)cc2)cc(NC(=O)C2CC2)n1 [Example I-084]	3.98
N#Cc1ccc(NC(=O)c2cc(-c3ccc(Cl)cc3)cc(NC(=O)C3CC3)n2)cc1 [Example I-022]	4.34

Switching to the query record.
## Task So what's the measured LOGP_HCOOH for this one? O=C(NN=Cc1ccc(C(F)(F)F)c(F)c1)c1cc(-c2ccc(OC(F)(F)F)cc2)cc(NC(=O)C2CC2)n1 [Example I-257]
## Result 4.72

====

experiment: log P by HPLC on reversed-phase column (C 18), EEC Directive 79/831 Annex V.A8; format: physicochemical; details: log P (HCOOH), acidic range at pH 2.7, 0.1% aqueous formic acid and acetonitrile; HPLC on reversed-phase column (C 18), 55° C.
The threshold is 4. Values of LOGP_HCOOH beneath it are tagged criterion met; values meeting or exceeding it are tagged criterion not met.

Solved entries (count: 5):
N#CC1CCC(CNC(=O)c2cc(-c3ccc(OC(F)(F)F)cc3)cc(NC(=O)C3CC3)n2)CC1 (stereo not shown) [Example I-161]	criterion met
N#Cc1ccc(CNC(=O)c2cc(-c3ccc4c(c3)OC(F)(F)C(F)(F)O4)cc(NC(=O)C3CC3)n2)cc1	criterion not met
CC(NC(=O)c1cc(-c2ccc(OC(F)(F)F)cc2)cc(NC(=O)C2CC2)n1)c1ccc(C#N)cc1 (racemic) [Example I-158]	criterion not met
NS(=O)(=O)c1ccc(CNC(=O)c2cc(-c3ccc(OC(F)(F)F)cc3)cc(NC(=O)C3CC3)n2)cc1	criterion met
N#Cc1ccc(CNC(=O)c2cc(-c3ccc(C4(C(F)(F)F)CC4)cc3)cc(NC(=O)C3CC3)n2)cc1	criterion not met

## Task Given the entry CC(NC(=O)c1cc(-c2ccc(OC(F)(F)F)cc2)cc(NC(=O)C2CC2)n1)c1ccc(C#N)cc1 (single isomer, unassigned) [Example I-218] , would its reported LOGP_HCOOH be below 4?
## Result criterion not met

## Task // query: N#Cc1ccc(CNC(=O)c2cc(-c3ccc(OC(F)(F)F)c(Cl)c3)cc(NC(=O)C3CC3)n2)cc1
## Result criterion not met

====

assay: log P by HPLC on reversed-phase column (C 18), EEC Directive 79/831 Annex V.A8; assay type: physicochemical; settings: log P (HCOOH), acidic range at pH 2.7, 0.1% aqueous formic acid and acetonitrile; HPLC on reversed-phase column (C 18), 55° C.
measurementLabel: LOGP_HCOOH
The response must contain the number and no unit.

Below are worked cases with known answers.
C#CC1(NC(=O)c2cc(-c3ccc(OC(F)(F)F)cc3)cc(NC(=O)C3CC3)n2)CC1 [Example I-126]	3.63
COC(=O)C1(NC(=O)c2cc(-c3ccc(OC(F)(F)F)cc3)cc(NC(=O)C3CC3)n2)COC1 [Example I-175]	3.25

## Task So what's the measured LOGP_HCOOH for this one? O=C(NC1CCCCC1)c1cc(-c2ccc(OC(F)(F)F)cc2)cc(NC(=O)C2CC2)n1 [Example I-168]
## Result 4.74

## Task // query: O=C(N[C@H]1CC[C@@H](C(F)(F)F)CC1)c1cc(-c2ccc(OC(F)(F)F)cc2)cc(NC(=O)C2CC2)n1 [Example I-145]
## Result 4.90

## Task // query: N#Cc1ccc(CNC(=O)c2cc(-c3ccc(S(=O)(=O)C(F)(F)F)cc3)cc(NC(=O)C3CC3)n2)cc1F [Example I-120]
## Result 3.74

## Task // query: CC(C)NC(=O)c1cc(-c2ccc(OC(F)(F)F)cc2)cc(NC(=O)C2CC2)n1 [Example I-129]
## Result 3.84

====

test: log P by HPLC on reversed-phase column (C 18), EEC Directive 79/831 Annex V.A8; format: physicochemical; conditions: log P (HCOOH), acidic range at pH 2.7, 0.1% aqueous formic acid and acetonitrile; HPLC on reversed-phase column (C 18), 55° C.
measurementLabel: LOGP_HCOOH
The response must contain the number and no unit.

Below are worked cases with known answers.
N#Cc1ccc(CNC(=O)c2cc(-c3ccc([S+]([O-])C(F)F)cc3)cc(NC(=O)C3CC3)n2)cc1 (centres unmarked)	2.53
N#CCCCCNC(=O)c1cc(-c2ccc(OC(F)(F)F)cc2)cc(NC(=O)C2CC2)n1	3.38
CC1(C(=O)Nc2cc(-c3ccc(OC(F)(F)F)cc3)cc(C(=O)NCc3ccc(C#N)cc3)n2)CC1	4.33
N#Cc1ccc2c(c1)CCC2NC(=O)c1cc(-c2ccc(OC(F)(F)F)cc2)cc(NC(=O)C2CC2)n1 (centres unmarked)	4.42

## Task So what's the measured LOGP_HCOOH for this one? N#Cc1ccc(CNC(=O)c2cc(-c3ccc([S+]([O-])C(F)(F)F)cc3)cc(NC(=O)C3CC3)n2)cc1 (centres unmarked)
## Result 3.09

## Task // query: N#Cc1ccc(CNC(=O)c2cc(-c3ccc(S(F)(F)(F)(F)F)cc3)cc(NC(=O)C3CC3)n2)cc1
## Result 3.98

## Task // query: N#Cc1ccc(CNC(=O)c2cc(-c3ccc(SC(F)(F)C(F)F)cc3)cc(NC(=O)C3CC3)n2)cc1
## Result 3.81

## Task // query: N#Cc1ccc(CNC(=S)c2cc(-c3ccc(OC(F)(F)F)cc3)cc(NC(=S)C3CC3)n2)cc1
## Result 5.54

## Task // query: N#CC1CCN(C(=O)c2cc(-c3ccc(OC(F)(F)F)cc3)cc(NC(=O)C3CC3)n2)CC1
## Result 3.21

## Task // query: COC1(NC(=O)c2cc(-c3ccc(OC(F)(F)F)cc3)cc(NC(=O)C3CC3)n2)CC1
## Result 3.58

====

Test: log P by HPLC on reversed-phase column (C 18), EEC Directive 79/831 Annex V.A8
Format: physicochemical
Conditions: log P (HCOOH), acidic range pH 2.7, 0.1% aqueous formic acid and acetonitrile; reversed-phase column (C 18), 55° C.
Protocol: Temperature: 55° C. […] Called log P (HCOOH) in the table. […] Called log P (neutral) in the table.
The threshold is 4. Values of LOGP_HCOOH beneath it are tagged yes; values meeting or exceeding it are tagged no.

Solved entries (count: 3):
O=C(NCc1ccc(Cl)cc1Cl)c1cc(-c2ccc(C(F)(F)F)cc2)cc(NC(=O)C2CC2)n1 [Example I-010]	no
N#Cc1ccc(CNC(=O)c2cc(-c3ccc(C(F)(F)C(F)(F)F)c(F)c3F)cc(NC(=O)C3CC3)n2)cc1 [Example I-272]	no
O=C(NCc1cc(F)c(Cl)cc1Cl)c1cc(-c2ccc(OC(F)(F)F)cc2)cc(NC(=O)C2CC2)n1 [Example I-063]	no

## Task Given the entry CN(C(=O)c1cc(-c2ccc(C(F)(F)F)cc2)cc(NC(=O)C2CC2)n1)c1cccnc1 [Example I-034] , would its reported LOGP_HCOOH be below 4?
## Result yes

## Task // query: N#Cc1cc(F)c(CNC(=O)c2cc(-c3ccc(OC(F)(F)F)cc3)cc(NC(=O)C3CC3)n2)c(F)c1 [Example I-082]
## Result no

====

Experiment: log P by HPLC on reversed-phase column (C 18), EEC Directive 79/831 Annex V.A8
Assay type: physicochemical
Settings: log P (HCOOH), acidic range pH 2.7, 0.1% aqueous formic acid and acetonitrile; reversed-phase column (C 18), 55° C.
Procedure: Temperature: 55° C. […] Called log P (HCOOH) in the table. […] Called log P (neutral) in the table.
Reported values of LOGP_HCOOH for individual entries
The response must contain the number and no unit.

Below are worked cases with known answers.
CC(NC(=O)c1cc(-c2ccc(C(F)(F)F)cc2)cc(NC(=O)C2CC2)n1)C1CC1 (stereo not shown)	4.17
O=C(NCc1ccc(Cl)c(F)c1)c1cc(-c2ccc(OC(F)(F)F)cc2)cc(NC(=O)C2CC2)n1	4.67
O=C(NCc1ccc2c(c1)OC(F)(F)O2)c1cc(-c2ccc(OC(F)(F)F)cc2)cc(NC(=O)C2CC2)n1	4.79
N#Cc1ccc(CNC(=O)c2cc(-c3ccc(C(F)(F)C(F)(F)F)c(F)c3)cc(NC(=O)C3CC3)n2)c(F)c1	4.45
N#CC1(NC(=O)c2cc(-c3ccc(OC(F)(F)F)cc3)cc(NC(=O)C3CC3)n2)CCC1	3.78
N#Cc1ccc(CNC(=O)c2cc(-c3cc(F)c(C(F)(F)C(F)(F)F)c(F)c3)cc(NC(=O)C3CC3)n2)cc1	4.23

Switching to the query record.
## Task So what's the measured LOGP_HCOOH for this one? O=C(NCc1ccc(Cl)cc1F)c1cc(-c2ccc(OC(F)(F)F)cc2)cc(NC(=O)C2CC2)n1
## Result 4.78
